Target: T1, PUF4 RNA-binding domain (Saccharomyces cerevisiae, UniProt P25339 537-888)
T1 sequence: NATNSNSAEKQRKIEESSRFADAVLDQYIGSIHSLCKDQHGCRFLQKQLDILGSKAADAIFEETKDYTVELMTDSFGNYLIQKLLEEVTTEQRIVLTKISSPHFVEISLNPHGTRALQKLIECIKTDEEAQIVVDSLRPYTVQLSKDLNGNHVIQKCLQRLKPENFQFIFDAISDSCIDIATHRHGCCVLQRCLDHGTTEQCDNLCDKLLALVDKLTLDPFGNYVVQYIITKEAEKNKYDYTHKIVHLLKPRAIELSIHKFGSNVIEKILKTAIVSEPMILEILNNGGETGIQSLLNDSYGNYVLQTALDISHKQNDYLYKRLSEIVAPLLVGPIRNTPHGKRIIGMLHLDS
Test: Mg; RNA-MaP; 20 mM Na-HEPES pH 7.4, 30 mM KOAc, 0.75 mM MgCl2, 0.1% Tween-20, 5% glycerol, 0.1 mg/mL BSA, 2 mM DTT; 25 C; 0.0125-409.6 nM protein
Conditions: tags: N-His6-TEV cleaved; C-SNAP kept, Cy3B-labelled; label: tethered on chip by stalled RNA polymerase
Reported pKd by item:
Recall that pKd is obtained by taking minus log10 of the concentration measured in molar.

Reference set (5 entries):
| binder | pKd |
| --- | --- |
| UCUCUUCAUGUAUAUAGUUCUCUU (ssRNA) [Id_ii_S1_P3E.2_K3.1_C3.2_[T-1A]_H3.1_A3.1_F3.1_T3.2_[T9G]_[A10T]] | 8.23 |
| Id_ii_S4_P3E.3_K3.2_C3.2_H3.2_A3.1_F3.1_T3.2 (ssRNA) RNA: UUUGACAACUGAUCGUUCUUUCUCUUAUAUAUAUAUUCUUUCUCGAUCAGUUGUCUUU | 7.16 |
| UCUCUUUGUUUAAUUAUCUCUU (ssRNA) [Ib_S1_P5E.1_K5.1_C5.1_H5.1_[A4T]_A5.1_[T6A]_F5.1_T5.1] | 7.35 |
| UCUCUUUGUAUUAUUUCCUUAUCUCUU (ssRNA) [Ie_S1_P5E.1_K5.1_C5.1_H5.1_A5.1_F5.1_[+8TTCCT]_T5.1] | 7.77 |
| UCUCUUUGUAUAACUCUCUU (ssRNA) [Ib_S1_P3E.1_K3.1_C3.1_H3.1_A3.1_F3.1_[T7A]_[A8C]_T3.1] | 7.33 |

Could you now look at the following binder, please?
Qu. I have this binder here, Ic_S2_P5E.1_K5.1_C5.1_H5.1_A5.1_[T5C]_[A7T]_F5.1_[T8A]_[T9C]_[A10G]_T5.1 (ssRNA) RNA: UUUGAUUAAUAUGAUAUCGUUCUUUCUUGUACUUACGUUCUUUCUCGAUAUCAUAUUAAUCUUU , and I need its recorded pKd.
Ans. 6.21
